Tested on: ENR+CD organoids (ISC to Paneth cell differentiation)
Experiment: Primary screen: basal (non-stimulated) lysozyme secretion LYZ.NS, 2.5-D 384-well ENR+CD organoid differentiation
Format: cell-based, mouse
Conditions: primary screen, dose 10.00 uM
Description: High-throughput screening.
Class membership depends on Z.LYZ.NS (standard z score) alone; the intervals are Low (below -0.5), Mid (-0.5 to below 0.08), High (0.08 or more)

molecule: O=C(C[S+]([O-])Cc1ccco1)NC/C=C\COc1cc(CN2CCCCC2)ccn1 (centres unmarked)
assay_target: ENR+CD organoids (ISC to Paneth cell differentiation)
group: High
--
molecule: COc1cc2ncnc(Nc3ccc(Cl)cc3F)c2cc1OC
assay_target: ENR+CD organoids (ISC to Paneth cell differentiation)
group: Low
--
molecule: Cc1ccccc1C(C(=O)NC1CCCCC1)N(C(=O)Cn1ccnc1C)c1cccc(F)c1 (centres unmarked)
assay_target: ENR+CD organoids (ISC to Paneth cell differentiation)
group: Mid
--
molecule: C[C@H](Cn1cnc2c(N)ncnc21)OCP(=O)(O)O
assay_target: ENR+CD organoids (ISC to Paneth cell differentiation)
group: Low
--
molecule: CCOC(=O)CCNc1cc(N2CCc3ccccc3CC2)nc(-c2ccccn2)n1.Cl [GSK J4 HCl]
assay_target: ENR+CD organoids (ISC to Paneth cell differentiation)
group: Mid
--
molecule: O=C(O)c1cccc(-c2noc(-c3ccccc3F)n2)c1
assay_target: ENR+CD organoids (ISC to Paneth cell differentiation)
group: Mid
--
molecule: Cn1cc(/C=C2\C(=O)Nc3cccnc32)c2ccccc21
assay_target: ENR+CD organoids (ISC to Paneth cell differentiation)
group: High
--
molecule: c1cc(-c2cnn3cc(-c4ccc(N5CCNCC5)cc4)cnc23)c2cccnc2c1
assay_target: ENR+CD organoids (ISC to Paneth cell differentiation)
group: Low
--
molecule: CC(=O)Nc1cccc2c1c(Sc1ccc(Cl)cc1)c(C)n2CC(=O)O
assay_target: ENR+CD organoids (ISC to Paneth cell differentiation)
group: High
--
molecule: c1ccc(NCc2ccc(CNc3ccccn3)cc2)nc1
assay_target: ENR+CD organoids (ISC to Paneth cell differentiation)
group: Mid

====

System: ENR+CD organoids (ISC to Paneth cell differentiation)
Test: Primary screen: basal (non-stimulated) lysozyme secretion LYZ.NS, 2.5-D 384-well ENR+CD organoid differentiation
Type: cell-based, mouse
Settings: primary screen, dose 0.08 uM
Structures can show the parent of a compound that is named as a salt.
# if measured Dose.FC.LYZ.NS (log2 fold change) < 0.05: 1 (yes)  # else: 0 (no)

compound: CC12CC3CC(C)(C1)CC(N)(C3)C2 [Memantine HCl]
group: 0 (no)
//
compound: CCN1CCC[C@H]1CNC(=O)c1cc(S(N)(=O)=O)ccc1OC [Levosulpiride]
group: 1 (yes)
//
compound: Cc1cnc(NC(=O)Nc2cc(Br)c(C)cc2OC[C@@H]2CNCCO2)cn1
group: 1 (yes)
//
compound: CCOC(=O)CCNc1cc(N2CCc3ccccc3CC2)nc(-c2ccccn2)n1.Cl [GSK J4 HCl]
group: 0 (no)
//
compound: Cc1ccc(NCCCc2ccccc2)c(N)c1
group: 0 (no)

====

Test system: ENR+CD organoids
Experiment: Primary screen: ATP (CellTiter-Glo 3D, CTG) cell number/viability, 2.5-D 384-well ENR+CD organoids;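 further: compounds given at plating and again on day 3 over a 6-day differentiation from ENR+CV stem-cell-enriched precursors, ATP measured on day 6, plate median as control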
Conditions: primary screen, dose 10.00 uM
Structures can show the parent of a compound that is named as a salt.
# if measured Dose.FC.CTG < -0.1 log2 fold change: 1  # else: -1

compound: CCc1cccc2c3c([nH]c12)C(CC)(CC(=O)O)OCC3 (stereo not drawn) [Etodolac]
group: -1
//
compound: C=CCNC1=C2C[C@@H](C)C[C@H](OC)[C@H](O)[C@@H](C)/C=C(\C)[C@H](OC(N)=O)[C@@H](OC)/C=C\C=C(/C)C(=O)NC(=CC1=O)C2=O [17-AAG (Tanespimycin)]
group: 1
//
compound: CCNC(=O)[C@H]1O[C@@H](n2cnc3c(N)nc(NCCc4ccc(CCC(=O)O)cc4)nc32)[C@H](O)[C@@H]1O [CGS 21680 HCl]
group: 1
//
compound: Cc1cc(C)nc(NS(=O)(=O)c2ccc(NC(=S)NC(=O)COc3ccc(Br)cc3Cl)cc2)n1 [ZCL278]
group: 1
//
compound: CCOc1ccc(Cc2cc([C@@H]3O[C@H](CO)[C@@H](O)[C@H](O)[C@H]3O)ccc2Cl)cc1 [Dapagliflozin, reference compound]
group: -1
//
compound: COc1cc(N2CCN(C)CC2)ccc1Nc1nccc(-c2cn(C)c3cnccc23)n1 [AZ191]
group: 1
//
compound: CN[C@@H](C)C(=O)N[C@H](C(=O)N1CCC[C@H]1C(=O)Nc1snnc1-c1ccccc1)C1CCCCC1 [GDC-0152]
group: -1
//
compound: CN(C)C(=O)Nc1cccc(-c2ccc(N(C)C)cc2)c1 [Atglistatin]
group: 1

====

Tested on: ENR+CD organoids (ISC to Paneth cell differentiation)
Experiment: Primary screen: basal (non-stimulated) lysozyme secretion LYZ.NS, 2.5-D 384-well ENR+CD organoid differentiation
Assay type: cell-based, mouse
Conditions: primary screen, dose 0.40 uM
measured_attribute: Z.LYZ.NS (standard z score)

given_smiles: CC(=O)Nc1cccc2c1c(Sc1ccc(Cl)cc1)c(C)n2CC(=O)O
observed: 0.008

given_smiles: Cc1cc2c(C(C)C)c(O)c(O)c(C=O)c2c(O)c1-c1c(C)cc2c(C(C)C)c(O)c(O)c(C=O)c2c1O
observed: −0.592

given_smiles: O=C(O)c1ccc(N2C(=O)/C(=C\c3ccc(-c4ccc([N+](=O)[O-])cc4)o3)C=C2c2ccccc2)cc1
observed: −0.154

given_smiles: NC(=O)Nc1cc(-c2cccc(F)c2)sc1C(=O)N[C@H]1CCCNC1
observed: −1.385

given_smiles: O=C(c1ccc(Nc2nccc(-c3cc4ccccc4s3)n2)cc1)N1CCC(N2CCCC2)CC1
observed: 0.176

given_smiles: Oc1ccc2ccccc2c1SSc1c(O)ccc2ccccc12
observed: 0.028

given_smiles: O=C(/C=C/c1cccc(S(=O)(=O)Nc2ccccc2)c1)NO
observed: 1.125

given_smiles: Cc1cc(-c2ccc(CC(=O)Nc3ccc(-c4cccnc4)cc3)cc2)ccn1
observed: −1.588

given_smiles: O=C(O)CCc1ccc(NCc2cccc(Oc3ccccc3)c2)cc1
observed: 0.169

====

Tested on: ENR+CD organoids (ISC to Paneth cell differentiation)
Assay: Primary screen: basal (non-stimulated) lysozyme secretion LYZ.NS, 2.5-D 384-well ENR+CD organoid differentiation
Assay type: cell-based, mouse
Conditions: primary screen; dose 10.00 uM; FC vs plate median
measured_attribute: Dose.FC.LYZ.NS (log2 fold change)

compound: O=C(O)/C=C/c1ccc(Cn2ccnc2)cc1
unit_spec: log2 fold change
observed: −0.008
--
compound: CC(C)(Cc1ccc2ccccc2c1)NC[C@@H](O)COc1cccc(Cl)c1C#N
unit_spec: log2 fold change
observed: −0.069
--
compound: CN(c1ncccc1CNc1nc(Nc2ccc3c(c2)CC(=O)N3)ncc1C(F)(F)F)S(C)(=O)=O
unit_spec: log2 fold change
observed: −0.251
--
compound: Nc1nc(CC(=O)Nc2ccc(CCNC[C@H](O)c3ccccc3)cc2)cs1
unit_spec: log2 fold change
observed: 0.022
--
compound: COc1ccc2cc([C@H](C)C(=O)O)ccc2c1
unit_spec: log2 fold change
observed: −0.122
--
compound: COC(=O)C1=C(C#N)NC(C)=C(C(=O)OC(C)C)C1c1cccc([N+](=O)[O-])c1 (stereo not shown)
unit_spec: log2 fold change
observed: 0.009
--
compound: COc1ccc(CNCc2cccc3ccccc23)cc1.Cl [ML133 HCl]
unit_spec: log2 fold change
observed: −0.018
--
compound: OC(CNCC(O)C1CCc2cc(F)ccc2O1)C1CCc2cc(F)ccc2O1 (stereo not shown)
unit_spec: log2 fold change
observed: 0.096
--
compound: CCc1cncnc1N1CCN(Cc2nc3ccc(C(F)(F)F)cc3[nH]2)CC1
unit_spec: log2 fold change
observed: 0.034
--
compound: C[C@@H]1O[C@@H](O[C@H]2C[C@@H](O)[C@]3(CO)[C@H]4[C@H](O)C[C@]5(C)[C@@H](C6=CC(=O)OC6)CC[C@]5(O)[C@@H]4CC[C@]3(O)C2)[C@H](O)[C@H](O)[C@H]1O
unit_spec: log2 fold change
observed: 0.165

====

System: ENR+CD organoids (ISC to Paneth cell differentiation)
Assay: Primary screen: basal (non-stimulated) lysozyme secretion LYZ.NS, 2.5-D 384-well ENR+CD organoid differentiation
Assay type: cell-based, mouse
Details: primary screen, dose 0.40 uM
Class membership depends on Dose.FC.LYZ.NS (log2 fold change) alone; the intervals are lower band (below 0), central band (0 to below 0.07), upper band (0.07 or more)

compound: C[C@H](NC(=O)[C@@H](O)c1cc(F)cc(F)c1)C(=O)N[C@@H]1C(=O)N(C)c2ccccc2-c2ccccc21
group: lower band
//
compound: Oc1ccc2ccccc2c1SSc1c(O)ccc2ccccc12
group: central band
//
compound: O=C(O)CCc1ccc(NCc2cccc(Oc3ccccc3)c2)cc1
group: central band
//
compound: CCc1c2c(nc3ccc(OC(=O)N4CCC(N5CCCCC5)CC4)cc13)-c1cc3c(c(=O)n1C2)COC(=O)[C@]3(O)CC
group: lower band
//
compound: CC(C)(C)Cn1c(N)nc2ccc(-c3[nH]c(C(C)(C)C)nc3-c3ccc(F)cc3)nc21
group: lower band
//
compound: O=C(Nc1ccccc1)c1cc([N+](=O)[O-])ccc1Cl
group: upper band
//
compound: CC(C)CCNC(=O)[C@H](CC(C)C)NC(=O)[C@H]1O[C@@H]1C(=O)O [Loxistatin Acid (E-64C)]
group: central band
//
compound: Cn1cc(/C=C2\C(=O)Nc3cccnc32)c2ccccc21
group: central band
//
compound: Fc1cc(F)c2c(c1)[C@H]1C=CC[C@H]1C(c1cccnc1)N2 (mixture of isomers) [Golgicide A]
group: central band
//
compound: C#Cc1cccc(Nc2ncnc3cc4c(cc23)OCCOCCOCCO4)c1
group: lower band
//
compound: O=C(/C=C\n1cnc(-c2cc(C(F)(F)F)cc(C(F)(F)F)c2)n1)N1CC(F)(F)C1
group: upper band
//
compound: Cc1ccc(NCCCc2ccccc2)c(N)c1
group: upper band
//
compound: Nc1cccc2c1CN(C1CCC(=O)NC1=O)C2=O (centres unmarked) [Lenalidomide (CC-5013)]
group: upper band
//
compound: CCc1cc(Nc2nccc(-c3c(-c4ccc(OC)c(C(=O)Nc5c(F)cccc5F)c4)nc4ccccn34)n2)c(OC)cc1N1CCC(N2CCN(S(C)(=O)=O)CC2)CC1 [GSK1904529A]
group: upper band
//
compound: CC(C)c1onc(-c2c(Cl)cccc2Cl)c1COc1ccc(/C=C/c2cccc(C(=O)O)c2)c(Cl)c1
group: lower band
